- TESTED ON: Kv7.2/7.3 channels (Homo sapiens, UniProt O43525+O43526)
- Construct: The entire construct for Kv7.2 and Kv7.3 was subcloned into the pIRESneo3 and pIREShygro3 expression vectors
- ASSAY METHOD TEXT: Kv7.2/3 channel opening activity, IonWorks planar patch-clamp of K-current at 0 mV
- EXPERIMENTAL PARAMETERS: CHO-K1 cells expressing human Kv7.2/7.3; IonWorks Quattro, step from -80 mV to 0 mV, 7-point concentration curves
Some molecules, each annotated with its measured pEC50.
Entry type: numeric. Quantity: pEC50, the -log10 of concentration in molar units.

Sample records with pEC50:
MOLECULE: CC(C)(C)CC(=O)Nc1c(C2CC2)nc2n(c1=O)CCCC2C(F)(F)F (single isomer, unassigned) [Example 5b]
pEC50: 6.53
--
MOLECULE: CC(C)(C)CC(=O)Nc1c(C2CC2)nc2c(OC(C)(F)F)cccn2c1=O
pEC50: 6.51

Consider now this further molecule.
q: Bench note: what pEC50 did CC[C@@H](C)Nc1nc2n(c(=O)c1NC(=O)CC(C)(C)C)CCCC2C (single isomer, unassigned; diastereomer 1) [Example 11a] show?
a: 6.51
